Experiment: NCI Yeast Anticancer Drug Screen. Data for the rad50 strain (AID 155);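 also: 0% = growth of vehicle-only cultures of the same strain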
Settings: S. cerevisiae rad50 strain growth inhibition; at 50.0 µM; active compounds read high
Compounds without any hit were thinned out: in the full panel of roughly 79,000, 15% have a hit.
Use -10% as the dividing line for growth inhibition, with the line itself on the class 1 side and lower values as class 0.

These recorded examples may help you get a feel for the data.
# MOLECULE, CLASS_LABEL
rows = [
    ("O=C1NC(N2CCCCC2)=N/C1=C\\c1ccc(Cl)cc1", "class 1"),
    ("NC(Cc1cccs1)C(=O)O (configuration not stated)", "class 0"),
    ("CC1COS(=O)(=O)CS(=O)(=O)O1 (configuration not stated)", "class 0"),
    ("O=C1OC2c3ccccc3C3CC(=O)C2C13 (configuration not stated)", "class 1"),
    ("O=C(Nc1ccc(Br)cc1)C(=O)C(C(=O)c1ccc(Cl)c(Cl)c1)C1OC(=O)c2ccccc21 (configuration not stated)", "class 1"),
]

Does growth inhibition meet or surpass -10% for Cc1cc2ncn(C3CCCO3)c2cc1C (configuration not stated) ?
class 1

Would you say COC(=O)C(C)(Cc1ccc2c(c1)nnn2C(C)=O)NC(C)=O (configuration not stated) shows growth inhibition at minimum -10%?
class 0

Identify whether the reported growth inhibition of the following molecule is -10% or greater: COc1cc([N+](=O)[O-])ccc1N=Cc1cccs1
class 1

Form field: growth inhibition at least -10%? Entry: COc1ccc(NC(=O)c2cc3ccccc3cc2OC(=O)NC(C)(C)C)cc1
class 0

Please indicate if the recorded growth inhibition for Fc1ccc(-c2ccc(Br)cc2)cc1 meets or exceeds -10%.
class 1

Form field: growth inhibition at least -10%? Entry: OCCCOC(c1ccccc1)(c1ccccc1)c1ccccc1
class 0

# check: growth inhibition of CC(=O)Nc1cccc(/C=C/C=C/c2cccc([N+](=O)[O-])c2)c1 is greater than or equal to -10%
class 1
